System: MKL-1
experimentalDetails: qHTS assay to identify novel small-molecules to repurpose for Merkel cell carcinoma treatment (AID 1296009); note: nearly all actives have a fitted effect of over 60% in size
measurementConditions: MCC and control cell lines, CellTiter-Glo viability, 72 h; series mostly up to 46 µM
Inconclusive results are not listed. Activity calls are given as the source filed them. Calls come from the whole dose curve; as a rule, active = well fitted inhibition curve with a large enough effect; inconclusive = small, poorly fitted or top-dose-only effect; inactive = flat fitted curve, though single readings scatter.
Write down one outcome, taken from active, inactive

Example cases with answers are listed next.
Oc1ccc(-c2ccc(-c3cc(Nc4cccc(CNC5CC5)c4)n[nH]3)cc2)c(O)c1; active
COc1cc(C)c(C=CC(C)=CC=CC(C)=CC(=O)O)c(C)c1C; inactive
Cn1cc(C[C@@H](N)C(=O)O)c2ccccc21; inactive
C=C1C[C@@]2(O)O[C@@]3(C[C@H]2C(C)C)[C@H](C)CC[C@H]13; inactive
CON=C(C(=O)N[C@@H]1C(=O)N2C(C(=O)O)=C(CSC(=O)c3ccco3)CS[C@H]12)c1csc(N)n1; inactive

Query: Could you kindly confirm the outcome this assay logged for `NC(=O)c1ncn([C@@H]2O[C@H](CO)[C@@H](O)[C@@H]2O)c1N` ?
Response: inactive

Query: Could you kindly confirm the outcome this assay logged for `NC[C@H]1O[C@H](O[C@H]2[C@@H](O)[C@@H](O[C@H]3O[C@H](CO)[C@@H](O)[C@H](N)[C@@H]3O)[C@H](N)C[C@@H]2N)[C@H](N)C[C@H]1O` ?
Response: inactive

Query: Could you kindly confirm the outcome this assay logged for `CCCc1nc(C(C)(C)O)c(C(=O)O)n1Cc1ccc(-c2ccccc2-c2nn[nH]n2)cc1` ?
Response: inactive

Query: Could you kindly confirm the outcome this assay logged for `O=C(C=CC=Cc1ccc2c(c1)OCO2)N1CCCCC1` ?
Response: inactive

Query: Could you kindly confirm the outcome this assay logged for `O=C(NNC(=O)c1ccc(CNS(=O)(=O)c2ccc(F)c(Cl)c2)cc1)c1ccccc1` ?
Response: inactive

Query: Could you kindly confirm the outcome this assay logged for OC[C@H]1OC(O)C[C@@H](O)[C@H]1O (stereo partly specified) ?
Response: inactive

---

experimentalDetails: qHTS of pediatric cancer cell lines to identify multiple opportunities for drug repurposing: Confirmatory screen for LAN-5 cells (AID 1347113); note: potency is the fitted concentration of half-maximal effect; nearly all actives have a fitted effect of over 65% in size
measurementConditions: LAN-5 neuroblastoma cell viability; series mostly up to 45.9 µM
Inconclusive results are not listed. The source made the active and inactive calls. Calls follow the shape of the dose curve; as a rule, active = well fitted cell-killing curve with a large enough effect; inconclusive = small, poorly fitted or top-dose-only effect, or effect the other way; inactive = no such curve, though single readings can be large or run the other way.
// values below are reported Potency

O=C(C=CC#Cc1cccc(NS(=O)(=O)c2ccccc2)c1)NO; 2610 nM (active)
C=CC(=O)Nc1cccc(Nc2nc(NC3CCC(N(C)C)CC3)nc3c2ncn3C(C)C)c1 (centres undefined); 827 nM (active)
CNC(=O)c1cccc(-c2ccc3c(N4CCOC[C@H]4C)nc(N4CCOC[C@H]4C)nc3n2)c1; 2330 nM (active)

Query: Name the reported Potency value associated with the molecule `COC[C@H](NC(=O)c1cnc(C)s1)C(=O)N[C@@H](COC)C(=O)N[C@@H](Cc1ccccc1)C(=O)[C@@]1(C)CO1`
Response: 329 nM (active)

Query: Name the reported Potency value associated with the molecule `Oc1cc(-c2nc(-c3ccccc3)[nH]c2-c2ccncc2)ccc1Cl`
Response: 6570 nM (active)

Query: Name the reported Potency value associated with the molecule COc1cccc2c1C(=O)c1c(O)c3c(c(O)c1C2=O)C[C@@](O)(C(=O)CO)C[C@@H]3O[C@H]1C[C@H](N)[C@H](OC2CCCCO2)[C@H](C)O1 (some centres undefined)
Response: 1170 nM (active)

Query: Name the reported Potency value associated with the molecule `COc1ccc(Nc2cc(-c3cnc(N)nc3)nc(N3CCOCC3)n2)cn1`
Response: 2330 nM (active)

Query: Name the reported Potency value associated with the molecule `Cn1cc(-c2cnn3c(N)c(Br)c([C@H]4CCCNC4)nc23)cn1`
Response: 5850 nM (active)

---

experimentalDetails: qHTS of pediatric cancer cell lines to identify multiple opportunities for drug repurposing: Confirmatory screen for A673 cells (AID 1347110);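 note: potency is the fitted concentration of half-maximal effect; cells exposed to compound for 48 h before the viability read; nearly all actives have a fitted effect of over 65% in size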
measurementConditions: A673 Ewing sarcoma cell viability; series mostly up to 45.9 µM
Inconclusive results are not listed. Active and inactive are the calls of the source. The call rests on the fitted dose curve; in most records, active means well fitted cell-killing curve with a large enough effect; inconclusive means small, poorly fitted or top-dose-only effect; inactive means flat fitted curve, though single readings scatter.
measurementName: Potency

These recorded examples may help you get a feel for the data.
COc1cccc2c1C(=O)c1c(O)c3c(c(O)c1C2=O)C[C@@](O)(C(=O)CO)C[C@@H]3O[C@H]1C[C@H](N)[C@@H](O)[C@H](C)O1; 0.293 µM (active)
COC(=O)C1C2CC3c4[nH]c5cc(OC)ccc5c4CCN3CC2CC(OC(=O)c2cc(OC)c(OC)c(OC)c2)C1OC (configuration not stated); 3.29 µM (active)
O=C(C=CC=Cc1ccc2c(c1)OCO2)N1CCCCC1; 16.5 µM (active)
CNC(=O)Nc1ccc(-c2nc(N3CC4CCC(C3)O4)c3cnn(C4CCC5(CC4)OCCO5)c3n2)cc1; 1.04 µM (active)
COc1ccc(C=Cc2cc(OC)c(OC)c(OC)c2)cc1NC(=O)[C@H](N)CO; 0.104 µM (active)
COc1cc2c(cc1OC)[C@@H]1C(=O)c3ccc4c(c3O[C@@H]1CO2)C=CC(C)(C)O4; 16.5 µM (active)
CCN(CC)CCNC(=O)c1c(C)[nH]c(C=C2C(=O)Nc3ccc(F)cc32)c1C; 10.7 µM (active)
CC(C)(N)c1ccc(-c2nc3ccccc3nc2-c2ccccc2)cc1; 2.93 µM (active)

Query: Name the reported Potency value associated with the compound `Cc1cnc(Nc2ccc(CN3CCOCC3)cc2)nc1Nc1cccc(S(=O)(=O)NC(C)(C)C)c1`
Response: 13.1 µM (active)

Query: Name the reported Potency value associated with the compound `C[C@@H](Oc1ccc2[nH]nc(C=Cc3cnn(CCO)c3)c2c1)c1c(Cl)cncc1Cl`
Response: 1.31 µM (active)

Query: Name the reported Potency value associated with the compound `CCc1cc(C(C)=NOCc2ccc(C3CCCCC3)c(C(F)(F)F)c2)ccc1CN1CC(C(=O)O)C1`
Response: 13.1 µM (active)

Query: Name the reported Potency value associated with the compound `C[C@@]12C(=O)OC(=O)[C@@]1(C)C1CCC2O1`
Response: 9.27 µM (active)

Query: Name the reported Potency value associated with the compound `CC(=O)ON=C1C(c2c(O)[nH]c3cc(Br)ccc23)=Nc2ccccc21`
Response: 7.37 µM (active)

Query: Name the reported Potency value associated with the compound `C=CC(=O)N1CCc2ccc(-n3c(=O)ccc4cnc5ccc(-c6cnn(C)c6)cc5c43)cc21`
Response: 14.7 µM (active)

Query: Name the reported Potency value associated with the compound `O=C(Nc1cc2cc[nH]c2cn1)c1ccccc1`
Response: 1.65 µM (active)

Query: Name the reported Potency value associated with the compound `CC[C@@]1([C@@H]2O[C@@H]([C@H]3O[C@@](O)(CO)[C@H](C)C[C@H]3C)C[C@H]2C)CC[C@H]([C@]2(C)CC[C@]3(C[C@H](O)[C@@H](C)[C@@H]([C@@H](C)[C@@H](OC)[C@H](C)C(=O)O)O3)O2)O1`
Response: 1.02 µM (active)

---

experimentalDetails: Quantitative High-Throughput drug screen in 47 multiple myeloma cell lines against the NCATS MIPE library collection: OCIMY5_PLB cell viability assay (AID 1918988); note: nearly all actives have a fitted effect of over 65% in size
measurementConditions: OCI-MY5 myeloma viability, ATP luminescence, 48 h; series mostly up to 45.8 µM
Records with an inconclusive call do not appear. Calls of active or inactive are those of the source. Calls follow the shape of the dose curve; as a rule, active = well fitted cell-killing curve with a large enough effect; inconclusive = small, poorly fitted or top-dose-only effect, or effect the other way; inactive = no such curve, though single readings can be large or run the other way.
Write down one outcome, taken from label 1 (active), label 0 (inactive)

CCCCCCCCCCCC(CC1OC(=O)C1CCCCCC)OC(=O)C(CC(C)C)NC=O (centres undefined); label 1
Cc1cnc(Nc2ccc(N3CCN(C)CC3)cc2)nc1Nc1cccc(S(=O)(=O)NC(C)(C)C)c1; label 1
CCc1c(O)cc(O)c(C(=O)c2ccc(OCCN3CCOCC3)c(OC)c2)c1CC(=O)N(CCOC)CCOC; label 1

Query: Could you kindly confirm the outcome this assay logged for `Cc1[nH]c(C=C2C(=O)Nc3ccccc32)c(C)c1CCC(=O)O` ?
Response: label 1

Query: Could you kindly confirm the outcome this assay logged for `O=C(CN1C(=O)C2(CCCC2)NC[C@H]1c1cc(F)cc(F)c1)Nc1ccc2c(c1)C[C@@]1(C2)C(=O)Nc2ncccc21` ?
Response: label 0

Query: Could you kindly confirm the outcome this assay logged for `N#CC(=C(N)Sc1ccc(N)cc1)c1ccccc1C(F)(F)F` ?
Response: label 1

Query: Could you kindly confirm the outcome this assay logged for `CCOc1cc2ncc(C#N)c(Nc3ccc(OCc4ccccn4)c(Cl)c3)c2cc1NC(=O)C=CCN(C)C` ?
Response: label 1

Query: Could you kindly confirm the outcome this assay logged for `CC(C)(N)c1ccc(-c2nc3ccccc3nc2-c2ccccc2)cc1` ?
Response: label 1

Query: Could you kindly confirm the outcome this assay logged for `C[C@H]1C[C@H]2[C@@H]3CCC4=CC(=O)C=C[C@]4(C)[C@@H]3C(=O)C[C@]2(C)[C@@]1(O)C(=O)CO` ?
Response: label 0

---

experimentalDetails: qHTS to identify inhibitors of the type 1 interferon - major histocompatibility complex class I in skeletal muscle: primary screen against the NCATS Mechanism Interrogation Plate v5.0 (MIPE) Libary (AID 1347411); note: nearly all actives have a fitted effect of over 65% in size
measurementConditions: iHSKM cells + IFN-b, HiBiT-tagged MHC-I luminescence, 24 h; series mostly up to 45.8 µM
Records with an inconclusive call do not appear. Activity calls are given as the source filed them. Calls follow the shape of the dose curve; as a rule, active = well fitted inhibition curve with a large enough effect; inconclusive = small, poorly fitted or top-dose-only effect; inactive = no such curve, though single readings can be large or run the other way.
Write down one outcome, taken from active, inactive

Query: Could you kindly confirm the outcome this assay logged for `O=C(Nc1cccc(Nc2ncc(Br)c(NCCc3cnc[nH]3)n2)c1)N1CCCC1` ?
Response: active

Query: Could you kindly confirm the outcome this assay logged for `CC(C)Oc1ccc(C(=O)N[C@H](CNC(=O)CN(C)C)Cc2ccc(-c3cn4cccc([C@H](C)O)c4n3)cc2)cc1Cl` ?
Response: inactive

Query: Could you kindly confirm the outcome this assay logged for `O=C(CN1C(=O)C2(CCCC2)NC[C@H]1c1cc(F)cc(F)c1)Nc1ccc2c(c1)C[C@@]1(C2)C(=O)Nc2ncccc21` ?
Response: inactive

Query: Could you kindly confirm the outcome this assay logged for `C=C(C)[C@@H]1CC[C@]2(C(=O)O)CC[C@]3(C)[C@H](CC[C@@H]4[C@@]5(C)CC[C@H](O)C(C)(C)[C@@H]5CC[C@]43C)[C@@H]12` ?
Response: inactive

Query: Could you kindly confirm the outcome this assay logged for `C[C@H]1[C@@H](OC(=O)CCC(=O)O)O[C@@H]2O[C@@]3(C)CC[C@@H]4[C@H](C)CC[C@@H]1[C@@]24OO3` ?
Response: inactive

Query: Could you kindly confirm the outcome this assay logged for `CN(C)c1ccc2cc(C(=O)N[C@@H](CCCN=C(N)CCl)C(=O)NCc3ccccc3)ccc2c1` ?
Response: active

Query: Could you kindly confirm the outcome this assay logged for `N#Cc1c(C2CCNCC2)cc(-c2c(O)cccc2OCC2CC2)nc1N` ?
Response: active

Query: Could you kindly confirm the outcome this assay logged for `CCOC(=O)C=C[C@H](C[C@@H]1CCNC1=O)NC(=O)[C@@H](CC(=O)[C@@H](NC(=O)c1cc(C)on1)C(C)C)Cc1ccc(F)cc1` ?
Response: inactive

The origin of these recorded values is PubChem BioAssay (NCATS).
